- System: Trichophyton mentagrophytes
- assayName: series dilution test in vitro, Trichophyton mentagrophytes
- Format: cell-based
- assayConditions: Sabourauds' milieu d'epreuve, 28° C, 24 to 96 hours
Minimum Inhibitory Concentration: recorded values
attributeMeasured: Minimum Inhibitory Concentration (µg/mL)

>>> testvalue("Cc1ccc(C(c2ccccc2)(c2ccncc2)n2ccnc2)cc1C (stereo not drawn) [Example 10]")
10
>>> testvalue("Cc1cccc(C(c2ccccc2)(c2ccccn2)n2ccnc2)c1C (stereo not drawn) [Example 7]")
0.05
>>> testvalue("Cc1ccc(C(c2ccccc2)(c2ccncc2)n2ccnc2)cc1C (stereo not drawn) [Example 5]")
0.5
>>> testvalue("Cc1cccc(C(c2ccccc2)(c2ccccn2)n2ccnc2)c1C (stereo not drawn) [Example 8]")
1

###

Reported values: MIC for Candida albicans, one per item.
Structures can show the parent of a compound that is named as a salt.
attributeMeasured: MIC (µg/mL)

>>> testvalue("FC(F)(F)c1cccc(C(c2ccccc2)(c2ccccn2)n2ccnc2)c1 (stereo not shown) [Known Compound 2, reference compound]")
4
>>> testvalue("Cc1cccc(C(c2ccccc2)(c2ccccn2)n2ccnc2)c1C (stereo not shown)")
1
>>> testvalue("Fc1ccc(C(c2ccccc2)(c2ccccn2)n2ccnc2)cc1 (stereo not shown) [Known Compound 1, reference compound]")
4
>>> testvalue("Cc1ccc(C(c2ccccc2)(c2ccncc2)n2ccnc2)c(C)c1 (stereo not shown)")
4
>>> testvalue("Cc1cccc(C)c1C(c1ccccc1)(c1ccccn1)n1ccnc1 (stereo not shown) [Example 3, hydrochloride]")
1
>>> testvalue("Cc1ccc(C(c2ccccc2)(c2ccncc2)n2ccnc2)cc1C (stereo not shown)")
1
>>> testvalue("Cc1ccc(C(c2ccccc2)(c2ccccn2)n2ccnc2)c(C)c1 (stereo not shown)")
10
>>> testvalue("Cc1cccc(C(c2ccccc2)(c2ccncc2)n2ccnc2)c1C (stereo not shown)")
1
>>> testvalue("Cc1ccc(C)c(C(c2ccccc2)(c2ccncc2)n2ccnc2)c1 (stereo not shown)")
4
>>> testvalue("Cc1ccc(C(c2ccccc2)(c2ccccn2)n2ccnc2)cc1C (stereo not shown)")
1

###

Minimum Inhibitory Concentration: recorded values
- Test system: Aspergillis niger
- assayName: series dilution test in vitro, Aspergillus niger
- Format: cell-based
- assayConditions: Sabourauds' milieu d'epreuve, 28° C, 24 to 96 hours
attributeMeasured: Minimum Inhibitory Concentration (µg/mL)

>>> testvalue("Fc1ccc(C(c2ccccc2)(c2ccccn2)n2ccnc2)cc1 (stereo not drawn) [Known Compound 1, reference compound]")
2
>>> testvalue("Cc1cccc(C(c2ccccc2)(c2ccccn2)n2ccnc2)c1C (stereo not drawn) [Example 8]")
1
>>> testvalue("Cc1cccc(C(c2ccccc2)(c2ccccn2)n2ccnc2)c1C (stereo not drawn) [Example 7]")
0.1
>>> testvalue("Cc1ccc(C(c2ccccc2)(c2ccncc2)n2ccnc2)cc1C (stereo not drawn) [Example 10]")
4
>>> testvalue("Cc1ccc(C(c2ccccc2)(c2ccncc2)n2ccnc2)cc1C (stereo not drawn) [Example 5]")
1
